Experiment: qHTS assay for identifying genotoxic compounds that show differential cytotoxicity against isogenic chicken DT40 cell lines with known DNA damage response pathways - Rad54/Ku70 mutant cell line (AID 743015); further: nearly all actives have a fitted effect of over 60% in size
Details: DT40 Rad54/Ku70 mutant viability, CellTiter-Glo, 40 h; series mostly up to 66.8 µM
Inconclusive results are not listed. The source made the active and inactive calls. The call rests on the fitted dose curve; in most records, active means well fitted cell-killing curve with a large enough effect in the repeat runs; inconclusive means weak or mixed curves; inactive means no such curve, though single readings can be large or run the other way.
// classify into Y (active), N (inactive)

Sample answers from the record:
INSERT INTO measurements (compound, category_label) VALUES
  ('CN(C)CCOC(C)(c1ccccc1)c1ccccn1 (stereo unspecified)', 'N'),
  ('CCOc1ccc(NC(C)=O)cc1', 'N'),
  ('CN[C@H]1CC[C@@H](c2ccc(Cl)c(Cl)c2)c2ccccc21', 'Y');

Now look at this entry.
Query block: What call does the record list for `NS(=O)(=O)O` ?
Result block: N

###

Target: Nuclear receptor subfamily 1 group I member 2 (Homo sapiens)
Test: Human pregnane X receptor (PXR) small molecule agonists, qHTS assay (AID 1346982); further: nearly all actives have a fitted effect of over 35% in size; on activation: on the % scale 0 is the no-effect control and ±100 the full control effect
Settings: PXR-Luc HepG2, CYP3A4 luciferase reporter, 24 h; series mostly up to 92.4 µM
Records with an inconclusive call do not appear. Active and inactive are the calls of the source. Calls follow the shape of the dose curve; as a rule, active = well fitted activation curve with a large enough effect in the repeat runs; inconclusive = weak or mixed curves; inactive = no such curve, though single readings can be large or run the other way.
Classes to choose from: t (active), f (inactive)

INSERT INTO results (compound, category_label) VALUES
  ('COc1ccc(CN(CCN(C)C)c2ccccn2)cc1', 'f'),
  ('O=C1c2c(O)cccc2Cc2cccc(O)c21', 'f'),
  ('CC(O)(P(=O)(O)O)P(=O)(O)O', 'f'),
  ('CCCCCCCCCCCC[N+](C)(C)Cc1ccccc1', 'f'),
  ('COc1ccc(OC(F)(F)F)cc1CN[C@H]1CCCN[C@H]1c1ccccc1', 't'),
  ('Nc1ccc(O)c([N+](=O)[O-])c1', 't'),
  ('CCN(Cc1c(F)cccc1Cl)c1c([N+](=O)[O-])cc(C(F)(F)F)cc1[N+](=O)[O-]', 't'),
  ('CC(=O)CCC(=O)O', 'f');

Query block: Short answer needed: outcome of this test for CCCCC(CC)C(=O)O (stereo unspecified) ?
Result block: f

Query block: What did this assay record as the result for `C[C@](N)(Cc1ccc(O)c(O)c1)C(=O)O` ?
Result block: f

Query block: What did this assay record as the result for `Cc1c(C(=O)O)c(O)cc2c1C(=O)c1c(O)c([C@@H]3O[C@H](CO)[C@@H](O)[C@H](O)[C@H]3O)c(O)c(O)c1C2=O` ?
Result block: f

Query block: Fill in: this test's call for `F[B-](F)(F)F` is ___
Result block: f

Query block: Per the assay record, what outcome was assigned to `O=C1O[C@H]([C@@H](O)CO)C(O)=C1O` ?
Result block: f

Query block: So what was the verdict on `Cc1cc(=O)oc2cc(O)ccc12` in this test?
Result block: f

Query block: Call for entry `Cc1cccc(C)c1` :
Result block: f

Query block: Per the assay record, what outcome was assigned to CN(C)CCOC(C)(c1ccccc1)c1ccccn1 (stereo unspecified) ?
Result block: f

###

Test: qHTS assay to test for compound auto fluorescence at 590 nm (red) in HepG2 cells (AID 720674); further: on the % scale 0 is the no-effect control and ±100 the full control effect
Conditions: HepG2 autofluorescence, red 540/590 nm, 1 h; series mostly up to 91.3 µM
Calls of active or inactive are those of the source. Calls come from the whole dose curve; as a rule, active = well fitted curve in the direction sought with a large enough effect in the repeat runs; inconclusive = weak or mixed curves; inactive = flat fitted curve, though single readings scatter.
READOUT_NAME: outcome

Illustrative cases are given below, each with its answer.
INSERT INTO results (molecule, readout_name, result) VALUES
  ('Cc1c(C(=O)O)c(O)cc2c1C(=O)c1c(O)c([C@@H]3O[C@H](CO)[C@@H](O)[C@H](O)[C@H]3O)c(O)c(O)c1C2=O', 'outcome', 'inactive'),
  ('C/C=C/C=C/C(=O)O', 'outcome', 'inactive'),
  ('CC1(C)S[C@@H]2[C@H](NC(=O)[C@H](N)c3ccccc3)C(=O)N2[C@H]1C(=O)O', 'outcome', 'inactive'),
  ('C1=CC2C3C=CC(C3)C2C1 (stereo not given)', 'outcome', 'inactive'),
  ('NC(=O)n1c(O)c(C(=O)c2cccs2)c2cc(Cl)ccc21', 'outcome', 'inactive'),
  ('CN1CCC[C@H]1c1cccnc1', 'outcome', 'inactive'),
  ('CCCCC(CC)C(=O)O (stereo not given)', 'outcome', 'inactive'),
  ('COc1ccc(OC(F)(F)F)cc1CN[C@H]1CCCN[C@H]1c1ccccc1', 'outcome', 'inactive');

Query block: So what does the record say about outcome for `CN(C)CCOC(c1ccccc1)c1ccccc1` ?
Result block: inactive

Query block: Could you share which outcome value was measured for `CN(N=O)C(=O)N[C@@H]1[C@@H](O)[C@H](O)[C@@H](CO)O[C@@H]1O` ?
Result block: inactive

Query block: State the recorded outcome for this entry: `CC1(C)O[C@@H]2C[C@H]3[C@@H]4CCC5=CC(=O)C=C[C@]5(C)[C@@]4(F)[C@@H](O)C[C@]3(C)[C@]2(C(=O)CO)O1`
Result block: inactive

Query block: Would you kindly share the measured outcome for `CCCCC1(COC(=O)CCC(=O)O)C(=O)N(c2ccccc2)N(c2ccccc2)C1=O` ?
Result block: inactive

Query block: Could you share which outcome value was measured for `Nc1ccc(S(N)(=O)=O)cc1` ?
Result block: inactive

Query block: Returns the measured outcome for the input molecule. Input: `CS(=O)(=O)OCCCCOS(C)(=O)=O`
Result block: inactive

Query block: Request the reported outcome associated with `Cc1ncc([N+](=O)[O-])n1C`
Result block: inactive

Query block: Recorded outcome of CC(=O)CC(c1ccccc1)c1c(O)c2ccccc2oc1=O (stereo not given) , please.
Result block: inactive

Query block: Query: outcome; subject: `NS(=O)(=O)O`
Result block: inactive

Query block: Requested field: outcome. Item: `O=S1(=O)OC(c2ccc(O)cc2)(c2ccc(O)cc2)c2ccccc21`
Result block: inactive

Query block: Item C1CCC(C(CC2CCCCN2)C2CCCCC2)CC1 (stereo not given) has what recorded outcome?
Result block: inactive

Query block: For the molecule shown here, `F[B-](F)(F)F` , give the reported outcome.
Result block: inactive

###

Biological target: Progesterone receptor (Homo sapiens) (UniProt P06401)
Sequence (P06401 whole entry, looked up): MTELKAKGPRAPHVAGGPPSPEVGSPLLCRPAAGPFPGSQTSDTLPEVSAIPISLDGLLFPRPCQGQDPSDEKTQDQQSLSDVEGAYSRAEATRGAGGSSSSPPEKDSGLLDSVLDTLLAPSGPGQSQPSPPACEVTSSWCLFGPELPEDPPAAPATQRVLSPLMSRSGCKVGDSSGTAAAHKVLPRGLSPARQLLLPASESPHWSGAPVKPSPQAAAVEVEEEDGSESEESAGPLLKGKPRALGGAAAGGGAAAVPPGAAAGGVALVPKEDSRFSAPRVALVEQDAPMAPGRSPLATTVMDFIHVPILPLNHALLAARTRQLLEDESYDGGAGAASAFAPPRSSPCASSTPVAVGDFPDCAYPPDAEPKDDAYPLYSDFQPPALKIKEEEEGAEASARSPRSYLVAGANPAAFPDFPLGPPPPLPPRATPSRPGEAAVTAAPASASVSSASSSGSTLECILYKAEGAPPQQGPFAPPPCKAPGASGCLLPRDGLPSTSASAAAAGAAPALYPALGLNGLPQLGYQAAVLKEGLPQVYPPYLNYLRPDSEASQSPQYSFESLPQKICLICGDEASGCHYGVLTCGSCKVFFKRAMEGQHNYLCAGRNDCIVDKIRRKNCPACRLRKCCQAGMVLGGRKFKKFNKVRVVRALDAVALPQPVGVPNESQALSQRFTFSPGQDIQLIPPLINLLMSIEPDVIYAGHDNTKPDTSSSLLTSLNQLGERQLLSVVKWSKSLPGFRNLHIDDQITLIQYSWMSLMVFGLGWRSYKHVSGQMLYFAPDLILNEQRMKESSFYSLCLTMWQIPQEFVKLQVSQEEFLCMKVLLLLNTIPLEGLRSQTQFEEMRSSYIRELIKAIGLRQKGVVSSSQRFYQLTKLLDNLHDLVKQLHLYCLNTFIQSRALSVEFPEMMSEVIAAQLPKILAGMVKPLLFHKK
Experiment: qHTS assay to identify small molecule antagonists of the progesterone receptor (PR) signaling pathway (AID 1346795)
Details: PR-UAS-bla HEK293T, beta-lactamase FRET ratio, 16 h; series mostly up to 92.4 µM
Description: National Center for Advancing Translational Sciences [NCATS] NIH Chemical Genomics Center [NCGC] U.S. Environmental Protection Agency [EPA] National Institutes of Environmental Health Sciences [NIEHS] National Toxicology Program [NTP] U.S. Food and Drug Administration [FDA] Progesterone receptor (PR), a nuclear hormone receptor, plays an important role in development, metabolic homeostasis and reproduction. […]
Records with an inconclusive call do not appear. Activity calls are given as the source filed them. Calls follow the shape of the dose curve; as a rule, active = well fitted inhibition curve with a large enough effect in the signal ratio in the repeat runs (not every such curve was filed as active); inconclusive = weak or mixed curves; inactive = flat fitted curve, though single readings scatter; the % refers to the signal ratio.
Valid outcomes are listed here; reply with one: 1 = active, 0 = inactive

INSERT INTO results (molecule, category_label) VALUES
  ('O=C1O[C@H]([C@@H](O)CO)C(O)=C1O', 0);

Query block: Can you look up the reported call for CCCCC(CC)C(=O)O (configuration not stated) for me?
Result block: 0

Query block: Which result was noted for this molecule in the test: `O=c1[nH]cnc2c1ncn2[C@H]1CC[C@@H](CO)O1`
Result block: 0

Query block: Outcome? `O=C1NS(=O)(=O)c2ccccc21`
Result block: 0

Query block: Can you look up the reported call for `Nc1ccc(S(N)(=O)=O)cc1` for me?
Result block: 0

Query block: Could you please tell me the result logged for `CC12CCC(CC1)C(C)(C)O2` in this assay?
Result block: 0

Query block: Which outcome did this test record for the molecule `CC(C)C(=O)Nc1ccc([N+](=O)[O-])c(C(F)(F)F)c1` ?
Result block: 1

Query block: Record lookup: outcome of this test for `F[B-](F)(F)F` ?
Result block: 0

###

Target: Nuclear receptor ROR-gamma (Homo sapiens) (UniProt P51449)
Experiment: qHTS assay to identify small molecule antagonists of the retinoid-related orphan receptor gamma (ROR-gamma) signaling pathway (AID 1159521; further: nearly all actives have a fitted effect of over 50% in size)
Settings: Tet-on RORgamma CHO cells, RORE-luciferase, 16 h; series mostly up to 92.4 µM
Results filed as inconclusive are left out. Active and inactive are the calls of the source. The call rests on the fitted dose curve; in most records, active means well fitted inhibition curve with a large enough effect in the repeat runs; inconclusive means weak or mixed curves, or effect the other way; inactive means no such curve, though single readings can be large or run the other way.
Log the outcome using a class from active, inactive

Illustrative cases are given below, each with its answer.
INSERT INTO assay_data (smi, category_label) VALUES
  ('COc1ccc(CN(CCN(C)C)c2ccccn2)cc1', 'inactive'),
  ('CCCCOC(=O)c1ccc(O)cc1', 'inactive'),
  ('CC(=O)Nc1c(I)c(NC(C)=O)c(I)c(C(=O)O)c1I', 'inactive'),
  ('COc1ccc(C(Cl)=C(c2ccc(OC)cc2)c2ccc(OC)cc2)cc1', 'active'),
  ('CCCc1cc(=O)[nH]c(=S)[nH]1', 'inactive'),
  ('CN(N=O)C(=O)N[C@@H]1[C@@H](O)[C@H](O)[C@@H](CO)O[C@@H]1O', 'inactive');

Query block: Call for entry `Cc1ncc([N+](=O)[O-])n1CCO` :
Result block: inactive

Query block: What did this assay record as the result for `CC/C(=C(\c1ccccc1)c1ccc(OCCN(C)C)cc1)c1ccccc1` ?
Result block: active
